Experiment: Thermodynamic solubility assay (PBS pH 6.5; isopropyl myristate)
Format: physicochemical
Details: oil or lipid, thermodynamic from solid, isopropyl myristate as vehicle, about 25° C., read-out: Thermodynamic Solubility in Isopropyl Myristate
Protocol: Thermodynamic Solubility Assay Weigh not less than 2 mg of the sample powder into a Whatman Mini-UniPrep vial. […]
quantity: log10(solubility thermodynamic at 24 h) (log10 of the value in µg/mL)
Short version: log10 scale, solubility thermodynamic at 24 h, µg/mL.

Given the molecule `COCCOCC(=O)OCCN(C)C(=O)n1ccc2c(N(C)[C@H]3CN(C(=O)CC#N)CC[C@H]3C)ncnc21` , what is its reported log10(solubility thermodynamic at 24 h)?
1.74

Given the molecule C[C@@H]1CCN(C(=O)CC#N)C[C@@H]1N(C)c1ncnc2c1ccn2C(=O)N(C)CCOC(=O)C1CCCO1 (stereo partly shown) , what is its reported log10(solubility thermodynamic at 24 h)?
2.57

Given the molecule `CCC(=O)OCCN(C)C(=O)n1ccc2c(N(C)[C@H]3CN(C(=O)CC#N)CC[C@H]3C)ncnc21` , what is its reported log10(solubility thermodynamic at 24 h)?
2.89

Given the molecule CCC(C)C(=O)OCCN(C)C(=O)n1ccc2c(N(C)[C@H]3CN(C(=O)CC#N)CC[C@H]3C)ncnc21 (stereo partly shown) , what is its reported log10(solubility thermodynamic at 24 h)?
3.20

Given the molecule `C[C@@H]1CCN(C(=O)CC#N)C[C@@H]1N(C)c1ncnc2c1ccn2C(=O)N(C)CCOC(=O)C1CC(F)(F)C1` , what is its reported log10(solubility thermodynamic at 24 h)?
2.94

Given the molecule `C[C@@H]1CCN(C(=O)CC#N)C[C@@H]1N(C)c1ncnc2c1ccn2C(=O)N(C)CCOC(=O)C1(C)CCC1` , what is its reported log10(solubility thermodynamic at 24 h)?
3.37

Given the molecule `CCCCCC(=O)OCCN(C)C(=O)n1ccc2c(N(C)[C@H]3CN(C(=O)CC#N)CC[C@H]3C)ncnc21` , what is its reported log10(solubility thermodynamic at 24 h)?
3.14
